subject.of.test: human FXR alpha ligand binding domain (Homo sapiens, UniProt Q96RI1)
Sequence (Q96RI1 187-472 isoform Q96RI1-2): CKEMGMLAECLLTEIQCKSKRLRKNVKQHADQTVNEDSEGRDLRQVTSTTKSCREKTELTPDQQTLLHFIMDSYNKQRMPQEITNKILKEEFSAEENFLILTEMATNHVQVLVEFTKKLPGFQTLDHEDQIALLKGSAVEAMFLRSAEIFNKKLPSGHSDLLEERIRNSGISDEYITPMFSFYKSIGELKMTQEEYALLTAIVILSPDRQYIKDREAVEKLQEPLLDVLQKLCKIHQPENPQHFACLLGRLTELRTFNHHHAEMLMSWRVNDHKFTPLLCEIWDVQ
assay.notes: FRET Activity Assay (ligand mediated cofactor peptide interaction)
run.conditions: LANCE time-resolved FRET; GST-FXR-LBD with biotinylated SRC-1 peptide (676-700); read-out: agonistic potential EC50

| smiles.data | subject.of.test | EC50 |
| --- | --- | --- |
| CC(C)n1nc(C(=O)O)cc1N1CCC(O)(c2ccc(OCc3c(-c4c(Cl)cccc4Cl)noc3C3CC3)cc2Cl)CC1 | human FXR alpha ligand binding domain (Homo sapiens, UniProt Q96RI1) | < 25 nM |
